This collection of values is drawn from the RNAGym collection of RNA variant scans (doi:10.1126/science.aae0568).

B1: tRNA (parent)
chain: GUUCCGUUGGCGUAAUGGUAACGCGUCUCCCUCCUAAGGAGAAGACUGCGGGUUCGAGUCCCGUACGGAACG

Variants of: B1
TEST DESCRIPTION: yeast fitness relative to wild type (ratio to wild type); higher = fitter; tRNA-Arg(CCU), competitive growth, 37 C, YPD
This sample holds only a part of the variants without activity.
Answer not fulfilled if yeast fitness is under 0.6, and fulfilled if it is 0.6 or more.

[
  {
    "MUT": "U2C A15G C61U",
    "CATEGORY": "not fulfilled"
  },
  {
    "MUT": "C11U A36U A70U",
    "CATEGORY": "fulfilled"
  },
  {
    "MUT": "C5G C24G A40U",
    "CATEGORY": "not fulfilled"
  },
  {
    "MUT": "C29A G39C G58A",
    "CATEGORY": "fulfilled"
  },
  {
    "MUT": "G9C C24U U26G C62G A70U",
    "CATEGORY": "not fulfilled"
  },
  {
    "MUT": "U19C C27U C33U A40C C55A A65G",
    "CATEGORY": "not fulfilled"
  },
  {
    "MUT": "A42G G63A",
    "CATEGORY": "fulfilled"
  },
  {
    "MUT": "G25C C27G C30G C60A",
    "CATEGORY": "not fulfilled"
  },
  {
    "MUT": "G12A G25C C30G",
    "CATEGORY": "not fulfilled"
  },
  {
    "MUT": "C29A A57G",
    "CATEGORY": "fulfilled"
  },
  {
    "MUT": "G12A A43U A45C G67C",
    "CATEGORY": "not fulfilled"
  }
]
